tested on: SH-SY5Y cells; conditions: human, SH-SY5Y cells, 24 h, 1 µM
metric.name: AK
Give the figure by itself; no unit, no explanation.

[
  {
    "compound": "O=C(Nc1n[nH]c2nc(-c3cccs3)c(Br)cc12)C1CCCC1",
    "AK": 91.49
  }
]

Param item = Fc1ccc(-c2ncn(C3CCNCC3)c2-c2ccnc(Oc3ccc(-c4ccccc4)cc3)n2)cc1 [UNC10225377A] ; retrieve measured AK.
108.76

Param item = O=C1NC(=O)C(N2CCc3ccccc32)=C1c1cccc(Cl)c1 [UNC10225137A] ; retrieve measured AK.
100.20

Param item = COc1cccc(C2=C(Nc3cccc(Cl)c3)C(=O)NC2=O)c1 [UNC10225288A] ; retrieve measured AK.
133.69

Param item = COc1ccc(C2=C(Nc3cccc(C(=O)O)c3)C(=O)NC2=O)cc1 [UNC10225244A] ; retrieve measured AK.
80.02

Param item = Nc1n[nH]c2nnc(-c3ccccc3)cc12 ; retrieve measured AK.
99.42

* * *

system: endogenous TFE3; assay: TFE3 nuclear translocation, immunocytochemistry high-content imaging; assay type: cell-based; details: PKIS2 primary screening
metric.name: TFE3 % (%)
Respond with the bare value in %.

[
  {
    "compound": "N#Cc1cccc(C(=O)NC2CCN(c3ccnc(Nc4ccc(F)cc4)n3)C2)c1 (stereo not drawn)",
    "units.of.measure": "%",
    "TFE3 %": 11.35
  }
]

Param item = Cn1cc(-c2ccc3c(c2)CCN3C(=O)Cc2ccccc2Cl)c2c(N)ncnc21 [UNC10225172A] ; retrieve measured TFE3 %.
8.56

Param item = CNc1nccc(-c2c(-c3ccc(F)cc3)ncn2CCCN2CCOCC2)n1 [UNC10225031A] ; retrieve measured TFE3 %.
11.89

Param item = CC(C)(C)n1cnc2c(N)ncnc21 [UNC10225362A] ; retrieve measured TFE3 %.
7.46

Param item = Cl.O=S(=O)(c1cccc(F)c1)c1ccc(Nc2ncnc3cc(Br)sc23)cc1Cl [UNC10224990A] ; retrieve measured TFE3 %.
13.25

Param item = COc1ccc(Nc2nccc(N3CCC(NC(=O)c4cc5ccccc5s4)C3)n2)cc1 (stereo not drawn) ; retrieve measured TFE3 %.
9.69

* * *

test system: SH-SY5Y cells; test: AK (adenylate kinase) release ToxiLight cytotoxicity assay; details: PKIS2 primary screening; note: reference of the scale not given here
metric.name: AK
Give the figure by itself; no unit, no explanation.

// known answers, use as guide
[
  {
    "compound": "CCOC(=O)N1CCC(n2cnc(-c3ccc(F)cc3)c2-c2ccnc(N)n2)CC1 [UNC10225132A]",
    "AK": 115.58
  },
  {
    "compound": "Cl.Cl.NC[C@H](CC1CCCCC1)NC(=O)c1ccc(-c2ccnc3[nH]ccc23)s1 [UNC10225041A]",
    "AK": 135.71
  },
  {
    "compound": "Clc1cc(Cl)cc(Nc2ccnc(Nc3cc(Cl)cc(Cl)c3)n2)c1 [GSK175726]",
    "AK": 105.62
  }
]

Param item = O=C(NC1CCN(c2ccnc(Nc3ccc(F)cc3)n2)C1)c1cc2ccccc2s1 (stereo not drawn) [GSK1379716] ; retrieve measured AK.
79.19

Param item = Nc1ncc(-c2cccnc2)c2scc(-c3ccc4c(c3)CCN4C(=O)Cc3ccccc3)c12 [UNC10225369A] ; retrieve measured AK.
64.72

Entry source: paper PMC9851200
